- Test system: SNB-19 CNS
- test.name: NCI-60 one-dose screen, 48 h (100 = growth as untreated, 0 = no growth, -100 = all killed)
- settings: 10 µM unless noted
This is part of a sample that, as a whole, favours compounds with a hit. Of some 83,000 tested, about 20% had one in any assay. Active and inactive are the calls of the source. How the source made its calls: active means growth percent below 10; inactive means the rest.
measurement.label: growth

>>> readout_value("Cc1cnc(N)nc1OCC(C)(C)CNC(=O)c1cccc(-c2ccc(S(=O)(=O)Nc3ccc4c(c3)N(C(=O)C3CC3)CCC4)cc2)c1")
"67.9% (inactive)"
>>> readout_value("O=C(Nc1ccc(C(=O)/C=C/c2ccc(N3CCOCC3)cc2)cc1)Nc1ccc([N+](=O)[O-])cc1")
"98.4% (inactive)"
>>> readout_value("CC(C)=CCC[C@](C)(O)[C@H]1CC[C@]2(C)[C@@H]1CC[C@@H]1[C@@]3(C)CC[C@H](OC(=O)CCC(=O)O)C(C)(C)[C@@H]3CC[C@]12C")
"24.1% [100 µM] (inactive)"
>>> readout_value("CCOC(=O)COc1c(C)cc(SSc2cc(C)c(OCC(=O)OCC)c(C)c2)cc1C")
"109% (inactive)"
>>> readout_value("Cc1nc(Cl)cc(N(c2cc(Cl)nc(C)n2)c2ncc(C(=O)Nc3c(C)cccc3Cl)s2)n1")
"72.9% (inactive)"
>>> readout_value("CCc1ccc(C2=C/C(=C/c3ccccc3)C(=O)N2CCc2ccc(S(N)(=O)=O)cc2)cc1")
"93.9% (inactive)"
>>> readout_value("COc1cc(NCc2ccccc2O)c2ncccc2c1")
"92.8% (inactive)"
>>> readout_value("C=CC1=C(C)C2=NC1=CC1=NC(=CC3=C(C)C4=C(O)C(C(=O)O)C(=C5NC(=C2)C(C)C5CCC(=O)O)C4=N3)C(CC)=C1C (configuration not stated)")
"112% (inactive)"
>>> readout_value("O=C1COCCN1c1ccc(NCc2cn(Cc3cccc4ccccc34)c3ccccc23)cc1")
"97.9% (inactive)"
>>> readout_value("COc1ccc(C(=O)CSc2nnc(-c3cc(-c4ccccc4)nc4ccccc34)o2)cc1")
"94.3% (inactive)"
>>> readout_value("Cc1ccc(S(=O)(=O)NCCCNc2nccc(-c3c(-c4cccc(F)c4)nc4occn34)n2)cc1")
"90.7% (inactive)"
>>> readout_value("CCN1CCN(CC(=O)Nc2nc3ccc(NCc4ccc(Cl)cc4)cc3s2)CC1")
"79.6% (inactive)"
>>> readout_value("C#C[C@]1(O)CC[C@H]2[C@@H]3CC=C4c5nc(Nc6ccccc6[N+](=O)[O-])sc5CC[C@]4(C)[C@H]3CC[C@@]21C")
"76.6% (inactive)"
>>> readout_value("N#C/C(C(=O)c1ccccc1)=C1/C(=O)Nc2ccc(F)cc21")
"98.4% (inactive)"
>>> readout_value("COc1cc2c(O)n(CCCN3CCOCC3)c3c4cnc5cccc(c(=O)c3c2cc1OC)c54")
"19.4% (inactive)"
>>> readout_value("CCOC(=O)c1nn(C2CCCCO2)c2ccc(NC(=O)Cn3nnc4ccccc43)cc12 (configuration not stated)")
"86.5% (inactive)"
>>> readout_value("CCN=C1C=CC(=C(c2ccc(N(CC)CC)cc2)c2ccc(N(CC)CC)cc2)c2ccccc21")
"-57.8% (active)"

----------
Recorded growth by entry
- Tested on: HCC-2998 colon
- test.name: NCI-60 one-dose screen, 48 h (100 = growth as untreated, 0 = no growth, -100 = all killed)
- settings: 10 µM unless noted
Compounds without any hit were thinned out: in the full panel of roughly 83,000, 20% have a hit. Active and inactive are the calls of the source. Rule for the calls: active = growth percent below 10; inactive = the rest.
measurement.label: growth

>>> readout_value("CNC(=O)c1cc(Oc2cccc3nc(NC(=O)Nc4cc(C(F)(F)F)cc(C(F)(F)F)c4)ccc23)ccn1")
"79.7% (inactive)"
>>> readout_value("Cc1ccc(-n2nc3n(/c2=N\\C(=O)NS(=O)(=O)c2ccc(C)cc2)CCN3C2=NCCN2)cc1")
"97.3% (inactive)"
>>> readout_value("CCc1ccc(-c2ccc(COc3ccc(CC4SC(=O)NC4=O)cc3)cc2)cc1 (centres undefined)")
"89.6% (inactive)"
>>> readout_value("COc1ccc(OC)c([N+](=O)[O-])c1C(=O)CNC(C)=O")
"101% (inactive)"

----------
- Test system: NCI-H460 lung
- test.name: NCI-60 one-dose screen, 48 h
- settings: 10 µM unless noted
About 83,000 compounds went through this panel and 20% of them were active in at least one assay; those are over-represented in the sample as a whole. Calls of active or inactive are those of the source. How the source made its calls: active means growth percent below 10; inactive means the rest.
Labels: active, inactive

>>> group("O=C(Nc1cccc2ccccc12)c1cc2ccccc2cc1O")
"active"
>>> group("COc1ccc(NCc2cn(-c3ccc(C(=O)O)cc3)nc2-c2ccc(C(=O)O)cc2)cc1C(F)(F)F")
"inactive"
>>> group("COc1ccc(/C=C/C=C\\C(=O)c2ccc(-n3ccnc3)cc2)cc1")
"inactive"
>>> group("CC1(C)CC[C@]2(C(N)=O)CC[C@]3(C)C(=CC[C@@H]4[C@@]5(C)C/C(=C/c6ccncc6)C(=O)C(C)(C)[C@@H]5CC[C@]43C)[C@@H]2C1")
"active"
>>> group("CCCCCCCCCN(CCCCCCCCC)C(C)C(=O)c1ccc2cc(Br)c3ccccc3c2c1 (stereo unspecified)")
"inactive"
>>> group("COc1cc(C)cc2oc3oc(=N)c(C(=O)c4ccccc4)cc3c(=O)c12")
"inactive"

----------
- Test system: TK-10 renal
- test.name: NCI-60 one-dose screen, 48 h
- settings: 10 µM unless noted
About 83,000 compounds went through this panel and 20% of them were active in at least one assay; those are over-represented in the sample as a whole. Calls of active or inactive are those of the source. How the source made its calls: active means growth percent below 10; inactive means the rest.
Labels: active, inactive

>>> group("CC1(C)CC[C@]2(C(=O)O)CC[C@]3(C)[C@H](CC[C@@H]4[C@@]5(C)CCC(=O)C(C)(C)[C@@H]5CC[C@]43C)[C@H]2[C@H]1OC(=O)C(F)(F)F")
"active"
>>> group("CCc1ccc(C2=C/C(=C/c3ccccc3)C(=O)N2CCc2ccc(S(N)(=O)=O)cc2)cc1")
"inactive"
>>> group("O=C(NCCO)c1cccnc1")
"inactive"
>>> group("C[n+]1cccc(NC(=O)c2ccc3ccc4ccc(C(=O)Nc5ccc[n+](C)c5)nc4c3n2)c1")
"inactive"
>>> group("Cn1cc(-c2noc(-c3cn(C)c4ncc(F)cc34)n2)c2ccccc21")
"inactive"
>>> group("CC(=O)OC[C@]12CC[C@@H]([C@@H](C)C(N)=O)[C@@H]1[C@H]1CC[C@@H]3[C@@]4(C)CC[C@H](OC(C)=O)C(C)(C)[C@@H]4CC[C@@]3(C)[C@]1(C)CC2")
"active"

----------
- System: SK-MEL-5 melanoma
- test.name: NCI-60 one-dose screen, 48 h
- settings: 10 µM unless noted
Compounds without any hit were thinned out: in the full panel of roughly 83,000, 20% have a hit. The source made the active and inactive calls. How the source made its calls: active means growth percent below 10; inactive means the rest.
Labels: t for active, f for inactive

>>> group("CCCCCn1sc(=O)n(Cc2ccc(CNC(=O)OCc3ccc4cccc(O)c4n3)cc2)c1=O")
"t"
>>> group("C=C(C)[C@@H]1CC[C@]2(C(=O)NCCNCCNC(=O)OC(C)(C)C)CC[C@]3(C)[C@H](CC[C@@H]4[C@@]5(C)CCC(=O)C(C)(C)[C@@H]5CC[C@]43C)[C@@H]12")
"t"
>>> group("CCN(CCNc1ccc(C)c2sc3cc(Cl)ccc3c(=O)c12)CC(C)O (stereo not drawn)")
"t"
>>> group("CCN(CC)CCSC(=O)C(O)(c1ccccc1)C1CCCC1 (stereo not drawn)")
"f"
>>> group("O=C1NC(=O)c2cc([N+](=O)[O-])cc3cccc1c23")
"f"
>>> group("CCOC(=O)c1ccc2nc(-c3c(C)nn(-c4ccccc4)c3N3CCOCC3)[nH]c2c1")
"f"
>>> group("N#CCCc1c[nH]c2ccccc12")
"f"
>>> group("COc1ccc(-c2cc(-c3ccc(Cl)cc3)nc(NCCCCNc3ccnc4cc(Cl)ccc34)n2)cc1")
"f"

----------
- System: MALME-3M melanoma
- test.name: NCI-60 one-dose screen, 48 h
- settings: 10 µM unless noted
About 83,000 compounds went through this panel and 20% of them were active in at least one assay; those are over-represented in the sample as a whole. Calls of active or inactive are those of the source. Rule for the calls: active = growth percent below 10; inactive = the rest.
Labels: t for active, f for inactive

>>> group("O=C(O)CSCc1nnc2n(Cc3ccccc3)c(=O)c3c4c(sc3n12)CCCC4")
"f"
>>> group("O=C(Oc1ccc(Cl)cc1[N+](=O)[O-])Oc1ccc(Cl)cc1[N+](=O)[O-]")
"f"
>>> group("N#C/C(C(=O)c1ccccc1)=C1/C(=O)Nc2ccc(F)cc21")
"f"
>>> group("CC(C)(C)c1cc(C(=O)Nc2ccccc2C(=O)NCCN)cc(C(C)(C)C)c1")
"f"
>>> group("CN(C)CCCNc1nc(-c2cccc(C(Cl)(Cl)Cl)c2)nc(C(Cl)(Cl)Cl)n1")
"f"
>>> group("Cc1cnc(N)nc1OCC(C)(C)CNC(=O)c1cccc(-c2ccc(S(=O)(=O)Nc3ccc4c(c3)N(C(=O)C3CC3)CCC4)cc2)c1")
"f"
>>> group("O=C1/C(=C\\c2cn(CC(O)CN3CCCCC3)c3ccccc23)c2ccccc2N1c1c(Cl)cccc1Cl (stereo not drawn)")
"t"
>>> group("O=C(N/N=C/c1c(Cl)cccc1Cl)c1cccc(Nc2ccnc(C(F)(F)F)c2)c1")
"f"
>>> group("CCn1cc(-c2cc(-c3ccc(Cl)cc3)nc(N)n2)c(-c2ccc(Br)cc2)n1")
"f"
>>> group("CCCCCC1CCCCN1C(=O)OCCCC (stereo not drawn)")
"f"
>>> group("O=[N+]([O-])c1ccc(O)c(-c2nc3ccccc3s2)c1")
"f"
>>> group("CC(C)OC(=O)Nc1cc(F)ccc1F")
"f"
>>> group("O=[N+]([O-])c1cc([N+](=O)[O-])c(NN=C(c2ccc(O)cc2)c2ccc(O)cc2)cc1Cl")
"t"
>>> group("CCCC[C@@H](C=O)NC(=O)[C@H](CC(C)C)NC(=O)[C@H](CC(C)C)NC(=O)OCc1ccccc1")
"t"
>>> group("CC1Cc2ccc(OCCN(C)C)cc2C1=O (stereo not drawn)")
"f"
>>> group("C[n+]1cccc(NC(=O)c2ccc3ccc4ccc(C(=O)Nc5ccc[n+](C)c5)nc4c3n2)c1")
"f"
>>> group("O=C(CSc1nc2ccc([N+](=O)[O-])cc2[nH]1)Nc1cccc(Cl)c1")
"t"
>>> group("COc1ccc(-c2nc3ccccn3c2/C=C/C(=O)c2cc(OC)c(OC)c(OC)c2)cc1OC")
"f"
